# Method: melting temperature; melt of duplexes
# Assay setup: sodium 0.0675 M; strand 1 µM
Measured quantity: Tm (°C)
The reply should contain only the number, in °C.

Record excerpt, results attached:
[
  {
    "Substance": "CGACGTGCCAAATGTGCTG+CAGCACATAATGCACGTCG ((((((((...((((((((+))))))))...))))))))",
    "Measured quantity": "Tm",
    "Measurement unit": "°C",
    "Readout value": 48.2
  },
  {
    "Substance": "CGACGTGCAATATGTGCTG+CAGCACATTTAGCACGTCG ((((((((.(.((((((((+)))))))).).))))))))",
    "Measured quantity": "Tm",
    "Measurement unit": "°C",
    "Readout value": 50.8
  },
  {
    "Substance": "CGACGTGCCTTATGTGCTG+CAGCACATGTCGCACGTCG ((((((((...((((((((+))))))))...))))))))",
    "Measured quantity": "Tm",
    "Measurement unit": "°C",
    "Readout value": 47.8
  }
]

Note Tm for the substance shown: CGACGTGCAGAATGTGCTG+CAGCACATCGAGCACGTCG ((((((((...((((((((+))))))))...))))))))
50.3

----------
# Method: melting temperature; melt of duplexes
# Assay setup: sodium 0.0675 M; strand 1 µM
Tm values by entry
The reply should contain only the number, in °C.

Note Tm for the substance shown: CGACGTGCGACATGTGCTG+CAGCACATCCGGCACGTCG ((((((((...((((((((+))))))))...))))))))
48.9

Note Tm for the substance shown: CGACGTGCTCGATGTGCTG+CAGCACATCATGCACGTCG ((((((((..(((((((((+)))))))))..))))))))
54.1

Note Tm for the substance shown: CGACGTGCTTCATGTGCTG+CAGCACATAATGCACGTCG ((((((((.(.((((((((+)))))))).).))))))))
50.4

Note Tm for the substance shown: CGACGTGCGCCATGTGCTG+CAGCACATATGGCACGTCG ((((((((...((((((((+))))))))...))))))))
48.1

----------
# Method: melting temperature; melt of duplexes
# Assay setup: sodium 0.0675 M; strand 1 µM
Threshold rule: Tm greater than or equal to 60 °C is true; below that, false.

[
  {
    "Substance": "CGACGTGCCACATGTGCTG+CAGCACATGGGGCACGTCG (((((((((.(((((((((+))))))))).)))))))))",
    "Label class": "true"
  }
]

Tm >= 60 °C for CGACGTGCGGTATGTGCTG+CAGCACATAAAGCACGTCG ((((((((..(((((((((+)))))))))..)))))))) ?
false

Tm >= 60 °C for CGACGTGCTGCATGTGCTG+CAGCACATAGCGCACGTCG ((((((((...((((((((+))))))))...)))))))) ?
false

----------
# Method: melting temperature; melt of duplexes
# Assay setup: sodium 0.0675 M; strand 1 µM
Tm values by entry
The reply should contain only the number, in °C.

Record excerpt, results attached:
[
  {
    "Substance": "CGACGTGCAAGATGTGCTG+CAGCACATTAGGCACGTCG ((((((((...((((((((+))))))))...))))))))",
    "Tm, °C": 51.3
  },
  {
    "Substance": "CGACGTGCGCAATGTGCTG+CAGCACATGGCGCACGTCG ((((((((((.((((((((+)))))))).))))))))))",
    "Tm, °C": 63
  },
  {
    "Substance": "CGACGTGCTTAATGTGCTG+CAGCACATCTGGCACGTCG ((((((((...((((((((+))))))))...))))))))",
    "Tm, °C": 49.7
  }
]

Here's the next entry for you.
Note Tm for the substance shown: CGACGTGCTCTATGTGCTG+CAGCACATAGGGCACGTCG ((((((((.((((((((((+)))))))))).))))))))
58.4

Attribution: the array DNA melting data of Ke et al.
